test system: Pseudomonas aeruginosa; assay: Antibacterial activity against Pseudomonas aeruginosa ATCC 25619 assessed as growth inhibition after 18 hr by broth microdilution method; type: functional; settings: ATCC 25619, 18 h
property.label: MIC

chemical_structure=CCn1cc(C(=O)O)c(=O)c2cc(F)c(N3CCN(c4nnc(SCC(=O)c5ccc(C)cc5)s4)CC3)cc21 property_label=MIC test_result="> 64 µg/mL"
chemical_structure=Cc1ccc(C(=O)CSc2nnc(N3CCN(c4cc5c(cc4F)c(=O)c(C(=O)O)cn5C4CC4)CC3)s2)cc1 property_label=MIC test_result="> 64 µg/mL"
chemical_structure=O=C(CSc1nnc(N2CCN(c3cc4c(cc3F)c(=O)c(C(=O)O)cn4C3CC3)CC2)s1)c1ccc(F)cc1 property_label=MIC test_result="32 µg/mL"
chemical_structure=CCn1cc(C(=O)O)c(=O)c2cc(F)c(N3CCN(c4nnc(SCC(=O)c5ccccc5)s4)CC3)cc21 property_label=MIC test_result="> 64 µg/mL"
chemical_structure=CCn1cc(C(=O)O)c(=O)c2cc(F)c(N3CCN(c4nnc(SCC(=O)c5ccc(OC)cc5)s4)CC3)cc21 property_label=MIC test_result="> 64 µg/mL"
chemical_structure=CCn1cc(C(=O)O)c(=O)c2cc(F)c(N3CCN(c4nnc(SCC(=O)c5ccc(F)cc5)s4)CC3)cc21 property_label=MIC test_result="32 µg/mL"
chemical_structure=CCn1cc(C(=O)O)c(=O)c2cc(F)c(N3CCN(c4nnc(SCC(=O)c5ccc(Br)cc5)s4)CC3)cc21 property_label=MIC test_result="> 64 µg/mL"
chemical_structure=COc1ccc(C(=O)CSc2nnc(N3CCN(c4cc5c(cc4F)c(=O)c(C(=O)O)cn5C4CC4)CC3)s2)cc1 property_label=MIC test_result="> 64 µg/mL"
chemical_structure=O=C(CSc1nnc(N2CCN(c3cc4c(cc3F)c(=O)c(C(=O)O)cn4C3CC3)CC2)s1)c1ccc(Cl)cc1 property_label=MIC test_result="> 64 µg/mL"
chemical_structure=O=C(CSc1nnc(N2CCN(c3cc4c(cc3F)c(=O)c(C(=O)O)cn4C3CC3)CC2)s1)c1ccc(Br)cc1 property_label=MIC test_result="> 64 µg/mL"
chemical_structure=CCn1cc(C(=O)O)c(=O)c2cc(F)c(N3CCN(c4nnc(SCC(=O)c5ccc(Cl)cc5)s4)CC3)cc21 property_label=MIC test_result="> 64 µg/mL"
chemical_structure=O=C(CSc1nnc(N2CCN(c3cc4c(cc3F)c(=O)c(C(=O)O)cn4C3CC3)CC2)s1)c1ccccc1 property_label=MIC test_result="> 64 µg/mL"
chemical_structure=O=C(CSc1nnc(N2CCN(c3cc4c(cc3F)c(=O)c(C(=O)O)cn4C3CC3)CC2)s1)c1ccc([N+](=O)[O-])cc1 property_label=MIC test_result="> 64 µg/mL"
chemical_structure=CCn1cc(C(=O)O)c(=O)c2cc(F)c(N3CCN(c4nnc(SCC(=O)c5ccc([N+](=O)[O-])cc5)s4)CC3)cc21 property_label=MIC test_result="> 64 µg/mL"
chemical_structure=O=C(O)c1cn(C2CC2)c2cc(N3CCNCC3)c(F)cc2c1=O property_label=MIC test_result="4 µg/mL"
chemical_structure=CCn1cc(C(=O)O)c(=O)c2cc(F)c(N3CCNCC3)cc21 property_label=MIC test_result="4 µg/mL"
